B1: glmS ribozyme (parent)
chain: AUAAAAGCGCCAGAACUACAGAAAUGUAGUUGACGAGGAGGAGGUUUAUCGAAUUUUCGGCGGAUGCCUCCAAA

- Variants of: B1
- assay.remarks: self-cleavage kobs at 10000 uM GlcN6P; higher = faster cleavage; RNA array
- assay.context: with glucosamine-6-phosphate
This sample holds only a part of the variants without activity.
Entry flag: TRUE if self-cleavage kobs at 10000 uM GlcN6P reaches 0.0005 s⁻¹; FALSE if it does not.

Determine whether measured self-cleavage kobs at 10000 uM GlcN6P meets or exceeds 0.0005 s⁻¹ for A15G
TRUE

Determine whether measured self-cleavage kobs at 10000 uM GlcN6P meets or exceeds 0.0005 s⁻¹ for A14U C50U C68A
FALSE

Determine whether measured self-cleavage kobs at 10000 uM GlcN6P meets or exceeds 0.0005 s⁻¹ for U31C G35U A39C G44U U55A
FALSE

Determine whether measured self-cleavage kobs at 10000 uM GlcN6P meets or exceeds 0.0005 s⁻¹ for A48C C67U
FALSE

Determine whether measured self-cleavage kobs at 10000 uM GlcN6P meets or exceeds 0.0005 s⁻¹ for C68G
FALSE

Determine whether measured self-cleavage kobs at 10000 uM GlcN6P meets or exceeds 0.0005 s⁻¹ for U55G U57G
FALSE

Determine whether measured self-cleavage kobs at 10000 uM GlcN6P meets or exceeds 0.0005 s⁻¹ for G29U C67U
TRUE

Determine whether measured self-cleavage kobs at 10000 uM GlcN6P meets or exceeds 0.0005 s⁻¹ for U55G C68A C71U
FALSE

Determine whether measured self-cleavage kobs at 10000 uM GlcN6P meets or exceeds 0.0005 s⁻¹ for G37C A52C
FALSE

Determine whether measured self-cleavage kobs at 10000 uM GlcN6P meets or exceeds 0.0005 s⁻¹ for A52U U57G
FALSE

Determine whether measured self-cleavage kobs at 10000 uM GlcN6P meets or exceeds 0.0005 s⁻¹ for C11G G60U
FALSE

Determine whether measured self-cleavage kobs at 10000 uM GlcN6P meets or exceeds 0.0005 s⁻¹ for A48U C71U
FALSE

Determine whether measured self-cleavage kobs at 10000 uM GlcN6P meets or exceeds 0.0005 s⁻¹ for C16U U30G G59C
FALSE

Determine whether measured self-cleavage kobs at 10000 uM GlcN6P meets or exceeds 0.0005 s⁻¹ for A52U
FALSE

Determine whether measured self-cleavage kobs at 10000 uM GlcN6P meets or exceeds 0.0005 s⁻¹ for G38U A42C
FALSE

Determine whether measured self-cleavage kobs at 10000 uM GlcN6P meets or exceeds 0.0005 s⁻¹ for U47G U54C
TRUE

Determine whether measured self-cleavage kobs at 10000 uM GlcN6P meets or exceeds 0.0005 s⁻¹ for G40U G43C U65A
FALSE

Determine whether measured self-cleavage kobs at 10000 uM GlcN6P meets or exceeds 0.0005 s⁻¹ for C11G U47G
FALSE

Determine whether measured self-cleavage kobs at 10000 uM GlcN6P meets or exceeds 0.0005 s⁻¹ for C8G A33U U56A
FALSE

Determine whether measured self-cleavage kobs at 10000 uM GlcN6P meets or exceeds 0.0005 s⁻¹ for G29C U30C U49G
FALSE

Determine whether measured self-cleavage kobs at 10000 uM GlcN6P meets or exceeds 0.0005 s⁻¹ for A14C C34G A48C
FALSE

Determine whether measured self-cleavage kobs at 10000 uM GlcN6P meets or exceeds 0.0005 s⁻¹ for C8G G63U
FALSE

Determine whether measured self-cleavage kobs at 10000 uM GlcN6P meets or exceeds 0.0005 s⁻¹ for U30A G44A C68G
FALSE

Determine whether measured self-cleavage kobs at 10000 uM GlcN6P meets or exceeds 0.0005 s⁻¹ for G35C A39U G41C C61A
FALSE

Determine whether measured self-cleavage kobs at 10000 uM GlcN6P meets or exceeds 0.0005 s⁻¹ for U55C G66U
TRUE

Determine whether measured self-cleavage kobs at 10000 uM GlcN6P meets or exceeds 0.0005 s⁻¹ for C50G C58A C68G C71U
FALSE

Determine whether measured self-cleavage kobs at 10000 uM GlcN6P meets or exceeds 0.0005 s⁻¹ for A39G G40U
TRUE

Determine whether measured self-cleavage kobs at 10000 uM GlcN6P meets or exceeds 0.0005 s⁻¹ for G26U A53C
TRUE

Determine whether measured self-cleavage kobs at 10000 uM GlcN6P meets or exceeds 0.0005 s⁻¹ for C10A G13U G44A
FALSE

Determine whether measured self-cleavage kobs at 10000 uM GlcN6P meets or exceeds 0.0005 s⁻¹ for G7A G9A G38A U65G
FALSE

Determine whether measured self-cleavage kobs at 10000 uM GlcN6P meets or exceeds 0.0005 s⁻¹ for A64C U65C
FALSE

Determine whether measured self-cleavage kobs at 10000 uM GlcN6P meets or exceeds 0.0005 s⁻¹ for U2G A33G
FALSE

Determine whether measured self-cleavage kobs at 10000 uM GlcN6P meets or exceeds 0.0005 s⁻¹ for G37C U46A G60U
FALSE

Determine whether measured self-cleavage kobs at 10000 uM GlcN6P meets or exceeds 0.0005 s⁻¹ for U30A A52C
FALSE

Determine whether measured self-cleavage kobs at 10000 uM GlcN6P meets or exceeds 0.0005 s⁻¹ for G7U C8U
FALSE

Determine whether measured self-cleavage kobs at 10000 uM GlcN6P meets or exceeds 0.0005 s⁻¹ for A48G U69G
FALSE

Determine whether measured self-cleavage kobs at 10000 uM GlcN6P meets or exceeds 0.0005 s⁻¹ for A39G A52C
FALSE

Determine whether measured self-cleavage kobs at 10000 uM GlcN6P meets or exceeds 0.0005 s⁻¹ for U31A A53C
TRUE

Determine whether measured self-cleavage kobs at 10000 uM GlcN6P meets or exceeds 0.0005 s⁻¹ for A36C A52U
FALSE

Determine whether measured self-cleavage kobs at 10000 uM GlcN6P meets or exceeds 0.0005 s⁻¹ for G37C G43A C61A
FALSE

Determine whether measured self-cleavage kobs at 10000 uM GlcN6P meets or exceeds 0.0005 s⁻¹ for G44A U56A
FALSE

Determine whether measured self-cleavage kobs at 10000 uM GlcN6P meets or exceeds 0.0005 s⁻¹ for G51A G63U
FALSE

Determine whether measured self-cleavage kobs at 10000 uM GlcN6P meets or exceeds 0.0005 s⁻¹ for A39U G43A C67G
TRUE

Determine whether measured self-cleavage kobs at 10000 uM GlcN6P meets or exceeds 0.0005 s⁻¹ for C10U U49G C61U
FALSE

Determine whether measured self-cleavage kobs at 10000 uM GlcN6P meets or exceeds 0.0005 s⁻¹ for U30G U45A C71U
TRUE

Determine whether measured self-cleavage kobs at 10000 uM GlcN6P meets or exceeds 0.0005 s⁻¹ for G40A C58G C70U
FALSE

Determine whether measured self-cleavage kobs at 10000 uM GlcN6P meets or exceeds 0.0005 s⁻¹ for G32A A36C A42G C70G
FALSE

Determine whether measured self-cleavage kobs at 10000 uM GlcN6P meets or exceeds 0.0005 s⁻¹ for A15G A33U G40U G41A
FALSE

Determine whether measured self-cleavage kobs at 10000 uM GlcN6P meets or exceeds 0.0005 s⁻¹ for A12U A52G C67U
TRUE

Determine whether measured self-cleavage kobs at 10000 uM GlcN6P meets or exceeds 0.0005 s⁻¹ for A12G A14C
FALSE

Determine whether measured self-cleavage kobs at 10000 uM GlcN6P meets or exceeds 0.0005 s⁻¹ for C8A G43U
FALSE

Determine whether measured self-cleavage kobs at 10000 uM GlcN6P meets or exceeds 0.0005 s⁻¹ for U54G C68U C70A
FALSE

Determine whether measured self-cleavage kobs at 10000 uM GlcN6P meets or exceeds 0.0005 s⁻¹ for A39G G59A
FALSE

Determine whether measured self-cleavage kobs at 10000 uM GlcN6P meets or exceeds 0.0005 s⁻¹ for G41U U45G
FALSE

Determine whether measured self-cleavage kobs at 10000 uM GlcN6P meets or exceeds 0.0005 s⁻¹ for U30C C50G U69A
FALSE

Determine whether measured self-cleavage kobs at 10000 uM GlcN6P meets or exceeds 0.0005 s⁻¹ for G44A U56A G60C C68A
FALSE

Determine whether measured self-cleavage kobs at 10000 uM GlcN6P meets or exceeds 0.0005 s⁻¹ for U31C U47G C70G
FALSE

Determine whether measured self-cleavage kobs at 10000 uM GlcN6P meets or exceeds 0.0005 s⁻¹ for C61U G62U
FALSE

Determine whether measured self-cleavage kobs at 10000 uM GlcN6P meets or exceeds 0.0005 s⁻¹ for U49G G63U
FALSE

Determine whether measured self-cleavage kobs at 10000 uM GlcN6P meets or exceeds 0.0005 s⁻¹ for U45G U55C G60A G63U
FALSE

Determine whether measured self-cleavage kobs at 10000 uM GlcN6P meets or exceeds 0.0005 s⁻¹ for G41C U55A
FALSE

Determine whether measured self-cleavage kobs at 10000 uM GlcN6P meets or exceeds 0.0005 s⁻¹ for C34G A42U
FALSE

Determine whether measured self-cleavage kobs at 10000 uM GlcN6P meets or exceeds 0.0005 s⁻¹ for A52G C68G
FALSE

Determine whether measured self-cleavage kobs at 10000 uM GlcN6P meets or exceeds 0.0005 s⁻¹ for G32U A48U C61U G63U C67U
FALSE

Determine whether measured self-cleavage kobs at 10000 uM GlcN6P meets or exceeds 0.0005 s⁻¹ for A12C U49C U56G C58G
FALSE

Determine whether measured self-cleavage kobs at 10000 uM GlcN6P meets or exceeds 0.0005 s⁻¹ for G7C C10G C70U
FALSE

Determine whether measured self-cleavage kobs at 10000 uM GlcN6P meets or exceeds 0.0005 s⁻¹ for C10U G13U
FALSE

Determine whether measured self-cleavage kobs at 10000 uM GlcN6P meets or exceeds 0.0005 s⁻¹ for C10G U30A
FALSE

Determine whether measured self-cleavage kobs at 10000 uM GlcN6P meets or exceeds 0.0005 s⁻¹ for A6G U56C
FALSE

Determine whether measured self-cleavage kobs at 10000 uM GlcN6P meets or exceeds 0.0005 s⁻¹ for C61A A64C
FALSE

Determine whether measured self-cleavage kobs at 10000 uM GlcN6P meets or exceeds 0.0005 s⁻¹ for A39G U46G
TRUE

Determine whether measured self-cleavage kobs at 10000 uM GlcN6P meets or exceeds 0.0005 s⁻¹ for C10A C11U U69G
FALSE

Determine whether measured self-cleavage kobs at 10000 uM GlcN6P meets or exceeds 0.0005 s⁻¹ for A12C U54G
TRUE

Determine whether measured self-cleavage kobs at 10000 uM GlcN6P meets or exceeds 0.0005 s⁻¹ for A14G G40C
TRUE

Determine whether measured self-cleavage kobs at 10000 uM GlcN6P meets or exceeds 0.0005 s⁻¹ for C16U G32A C58A U69A
FALSE

Determine whether measured self-cleavage kobs at 10000 uM GlcN6P meets or exceeds 0.0005 s⁻¹ for A48U U55G
FALSE

Determine whether measured self-cleavage kobs at 10000 uM GlcN6P meets or exceeds 0.0005 s⁻¹ for A15U A33G G38C G40C C68U
FALSE

Determine whether measured self-cleavage kobs at 10000 uM GlcN6P meets or exceeds 0.0005 s⁻¹ for C11U A39G C58G
FALSE

Determine whether measured self-cleavage kobs at 10000 uM GlcN6P meets or exceeds 0.0005 s⁻¹ for A12U A15G U46G
TRUE

Determine whether measured self-cleavage kobs at 10000 uM GlcN6P meets or exceeds 0.0005 s⁻¹ for A24C G26U G40U
TRUE

Determine whether measured self-cleavage kobs at 10000 uM GlcN6P meets or exceeds 0.0005 s⁻¹ for U47A G59A
FALSE

Determine whether measured self-cleavage kobs at 10000 uM GlcN6P meets or exceeds 0.0005 s⁻¹ for G7C A42G
FALSE

Determine whether measured self-cleavage kobs at 10000 uM GlcN6P meets or exceeds 0.0005 s⁻¹ for G41U U47G
TRUE

Determine whether measured self-cleavage kobs at 10000 uM GlcN6P meets or exceeds 0.0005 s⁻¹ for C11U C61G U69C
FALSE

Determine whether measured self-cleavage kobs at 10000 uM GlcN6P meets or exceeds 0.0005 s⁻¹ for C10G C11G G63C
FALSE

Determine whether measured self-cleavage kobs at 10000 uM GlcN6P meets or exceeds 0.0005 s⁻¹ for A6G C8U U30A G40C A64C U65A
FALSE

Determine whether measured self-cleavage kobs at 10000 uM GlcN6P meets or exceeds 0.0005 s⁻¹ for U30C U31G C70G
FALSE

Determine whether measured self-cleavage kobs at 10000 uM GlcN6P meets or exceeds 0.0005 s⁻¹ for A15U U31G U47A
TRUE

Determine whether measured self-cleavage kobs at 10000 uM GlcN6P meets or exceeds 0.0005 s⁻¹ for C11G C58U G59U
FALSE

Determine whether measured self-cleavage kobs at 10000 uM GlcN6P meets or exceeds 0.0005 s⁻¹ for A48C C50U
FALSE

Determine whether measured self-cleavage kobs at 10000 uM GlcN6P meets or exceeds 0.0005 s⁻¹ for U47A U54C C71U
TRUE

Value source: the supplement of paper PMC7125110
